Molecular target: Wild-type cruzipain (Trypanosoma cruzi)
Sequence (P25779 whole entry): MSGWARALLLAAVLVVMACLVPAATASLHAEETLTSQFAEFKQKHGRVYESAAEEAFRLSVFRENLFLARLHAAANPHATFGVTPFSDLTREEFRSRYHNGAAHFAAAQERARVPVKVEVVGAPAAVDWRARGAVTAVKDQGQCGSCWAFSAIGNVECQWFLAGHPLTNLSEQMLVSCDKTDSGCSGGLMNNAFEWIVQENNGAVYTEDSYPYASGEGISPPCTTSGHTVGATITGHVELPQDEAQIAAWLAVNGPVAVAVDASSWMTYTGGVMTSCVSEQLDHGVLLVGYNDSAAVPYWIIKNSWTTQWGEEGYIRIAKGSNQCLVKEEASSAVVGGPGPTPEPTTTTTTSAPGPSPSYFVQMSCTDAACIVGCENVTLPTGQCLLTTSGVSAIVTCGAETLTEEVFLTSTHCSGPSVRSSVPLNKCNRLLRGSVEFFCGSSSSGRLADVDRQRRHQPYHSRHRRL
Assay: Trypanosoma cruzi cruzipain peptidase activity assay (Ki)
Assay type: biochemical
Details: read-out: Ki, inhibitors of cruzain and cruzipains
readout: Ki

Ki reading for CC(C)C[C@H](NC(=O)OCc1ccccc1)C(=O)N1CC(=O)[C@@H]2[C@H]1CCN2C(=O)[C@H](CC(C)C)NC(=O)c1ccc(N(C)C)cc1 : < 5 µM

Ki reading for CC(C)C[C@H](NC(=O)c1ccc(N(C)C)cc1)C(=O)N1CC[C@@H]2[C@H]1C(=O)CN2C(=O)C1CCNCC1 : < 5 µM

Ki reading for O=C(N[C@@H](Cc1ccc(O)cc1)C(=O)N1CC[C@@H]2[C@H]1C(=O)CN2C(=O)c1ccccc1)c1cc2ccccc2s1 : < 5 µM

Ki reading for CC(C)C[C@H](NC(=O)c1ccc(N(C)C)cc1)C(=O)N1CC[C@@H]2[C@H]1C(=O)CN2C(=O)[C@H](CO)NC(=O)OCc1ccccc1 : < 5 µM

Ki reading for CC(C)C[C@H](NC(=O)c1ccc(N(C)C)cc1)C(=O)N1CC[C@@H]2[C@H]1C(=O)CN2C(=O)c1ccc([N+](=O)[O-])cc1 : < 5 µM

Ki reading for CC(C)C[C@H](NC(=O)c1ccc2c(c1)CCCN2)C(=O)N1CC[C@@H]2[C@H]1C(=O)CN2C(=O)c1ccccc1 : < 5 µM

----------
Target protein (sequence): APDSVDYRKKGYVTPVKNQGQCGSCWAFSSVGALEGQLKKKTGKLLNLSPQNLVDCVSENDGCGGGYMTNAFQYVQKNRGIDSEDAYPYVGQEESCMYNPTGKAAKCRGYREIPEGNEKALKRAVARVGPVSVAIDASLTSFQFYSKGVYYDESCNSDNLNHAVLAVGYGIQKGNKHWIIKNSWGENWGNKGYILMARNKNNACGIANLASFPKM
readout: Ki

Ki reading for O=C(N[C@@H](CC1CCCCC1)C(=O)N1CC[C@@H]2[C@H]1C(=O)CN2C(=O)c1ccccc1)c1ccsc1 [Example 250] : > 5 µM

Ki reading for CC(C)C[C@H](NC(=O)c1ccc(-c2cccs2)cc1)C(=O)N1CC[C@@H]2[C@H]1C(=O)CN2C(=O)c1ccccc1 [Example 2] : < 0.01 µM

Ki reading for O=C(N[C@@H](Cc1ccc(O)cc1)C(=O)N1CC[C@@H]2[C@H]1C(=O)CN2C(=O)c1ccccc1)c1cccc2ccccc12 [Example 296] : > 50 µM

Ki reading for CC(C)(C)c1ccc(C(=O)N[C@@H](Cc2ccc(O)cc2)C(=O)N2CC[C@@H]3[C@H]2C(=O)CN3C(=O)c2ccccc2)cc1 [Example 346] : > 8 µM

----------
Target: human cathepsin L (Homo sapiens)
Construct: purchased CN Biosciences
Sequence (P07711 114-333): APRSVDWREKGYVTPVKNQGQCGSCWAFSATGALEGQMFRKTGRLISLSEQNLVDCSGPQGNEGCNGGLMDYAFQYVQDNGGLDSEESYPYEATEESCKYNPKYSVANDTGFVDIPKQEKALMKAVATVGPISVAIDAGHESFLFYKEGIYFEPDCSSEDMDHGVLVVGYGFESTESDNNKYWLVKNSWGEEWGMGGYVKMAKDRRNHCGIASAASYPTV
Experiment: Cathepsin L peptidase activity assay (Ki)
Assay type: biochemical
Settings: Table 5; read-out: Ki Human Cathepsin L
pKi: −log10 of the molar value.
readout: pKi

pKi reading for CC(C)(C)c1ccc(C(=O)N[C@@H](Cc2ccc(O)cc2)C(=O)N2CC[C@@H]3[C@H]2C(=O)CN3C(=O)c2ccccc2)cc1 : < 5.52

pKi reading for CC(C)C[C@H](NC(=O)c1ccc(-c2cccs2)cc1)C(=O)N1CC[C@@H]2[C@H]1C(=O)CN2C(=O)c1ccccc1 : < 5.52

pKi reading for O=C(N[C@@H](CC1CCCCC1)C(=O)N1CC[C@@H]2[C@H]1C(=O)CN2C(=O)c1ccccc1)c1ccsc1 : < 6.00

pKi reading for O=C(N[C@@H](Cc1ccc(O)cc1)C(=O)N1CC[C@@H]2[C@H]1C(=O)CN2C(=O)c1ccccc1)c1cccc2ccccc12 : > 6.70

----------
Molecular target: human cathepsin L (Homo sapiens)
Construct: purchased CN Biosciences
Experiment: Cathepsin L peptidase activity assay (Ki)
Type: biochemical
Details: read-out: Ki, inhibitors of cathepsin L
pKi: −log10 of the molar value.
readout: pKi

pKi reading for CC(C)C[C@H](NC(=O)OCc1ccccc1)C(=O)N1CC(=O)[C@@H]2[C@H]1CCN2C(=O)[C@H](CC(C)C)NC(=O)c1ccc(N(C)C)cc1 : > 5.30

pKi reading for CC(C)C[C@H](NC(=O)c1ccc(N(C)C)cc1)C(=O)N1CC[C@@H]2[C@H]1C(=O)CN2C(=O)[C@@H](NC(=O)OCc1ccccc1)C(C)C : > 5.30

pKi reading for CC(=O)N[C@@H](CC(C)C)C(=O)N1CC(=O)[C@@H]2[C@H]1CCN2C(=O)[C@H](CC1CCCCC1)NC(=O)c1ccco1 : > 5.30

pKi reading for O=C(N[C@@H](CC1CCCCC1)C(=O)N1CC[C@@H]2[C@H]1C(=O)CN2C(=O)c1ccccc1)c1csc2ccccc12 : > 5.30

pKi reading for CC(C)C[C@H](NC(=O)c1ccc(N(C)C)cc1)C(=O)N1CC[C@@H]2[C@H]1C(=O)CN2C(=O)C1CCCCC1 : > 5.30

pKi reading for CC(C)C[C@H](NC(=O)c1ccc(N(C)C)cc1)C(=O)N1CC[C@@H]2[C@H]1C(=O)CN2C(=O)c1csc2ccccc12 : > 5.30

pKi reading for CC(C)C[C@H](NC(=O)c1ccc2ncsc2c1)C(=O)N1CC[C@@H]2[C@H]1C(=O)CN2C(=O)c1ccccc1 : > 5.30

pKi reading for O=C(N[C@@H](CC1CCCCC1)C(=O)N1CC[C@@H]2[C@H]1C(=O)CN2C(=O)c1ccc(-c2ccccc2)s1)c1ccsc1 : > 5.30

pKi reading for NCc1cccc(C(=O)N[C@@H](CSCc2ccccc2)C(=O)N2CC[C@@H]3[C@H]2C(=O)CN3C(=O)c2ccccc2)c1 : > 5.30

pKi reading for CC(C)C[C@H](NC(=O)c1ccc2c(c1)CCCN2)C(=O)N1CC[C@@H]2[C@H]1C(=O)CN2C(=O)c1ccccc1 : > 5.30

pKi reading for O=C(N[C@@H](CSCc1ccccc1)C(=O)N1CC[C@@H]2[C@H]1C(=O)CN2C(=O)c1ccccc1)c1cccs1 : > 5.30

pKi reading for CC(C)C[C@H](NC(=O)c1cccc(CN)c1)C(=O)N1CC[C@@H]2[C@H]1C(=O)CN2C(=O)Nc1ccccc1 : > 5.30

pKi reading for O=C(N[C@@H](CC1CCCCC1)C(=O)N1CC[C@@H]2[C@H]1C(=O)CN2C(=O)c1cccc2ccccc12)c1ccsc1 : > 5.30

pKi reading for CN(C)c1ccc(C(=O)N[C@@H](Cc2ccc(O)cc2)C(=O)N2CC[C@@H]3[C@H]2C(=O)CN3C(=O)c2cccs2)cc1 : > 5.30

pKi reading for CC(C)C[C@H](NC(=O)c1ccc2ccccc2n1)C(=O)N1CC[C@@H]2[C@H]1C(=O)CN2C(=O)c1ccccc1 : > 5.30

pKi reading for CC(C)C[C@H](NC(=O)c1cc2ccccc2o1)C(=O)N1CC[C@@H]2[C@H]1C(=O)CN2C(=O)c1ccccc1 : > 5.30

pKi reading for CC(C)C[C@H](NC(=O)c1ccc(C(C)(C)C)cc1)C(=O)N1CC[C@@H]2[C@H]1C(=O)CN2C(=O)c1ccc(-c2ccccc2)s1 : > 5.30

pKi reading for Cc1ccc(C(=O)N2CC(=O)[C@@H]3[C@H]2CCN3C(=O)[C@H](CC2CCCCC2)NC(=O)c2ccsc2)cc1 : > 5.30

pKi reading for CC(C)C[C@H](NC(=O)c1ccc(N2CCCC2)cc1)C(=O)N1CC[C@@H]2[C@H]1C(=O)CN2C(=O)c1ccccc1 : > 5.30

pKi reading for CC(C)C[C@H](NC(=O)c1ccc(OC(F)(F)F)cc1)C(=O)N1CC[C@@H]2[C@H]1C(=O)CN2C(=O)c1ccccc1 : > 5.30

pKi reading for CC(C)C[C@H](NC(=O)c1cccc(N2CCNCC2)c1)C(=O)N1CC[C@@H]2[C@H]1C(=O)CN2C(=O)c1ccccc1 : > 5.30

pKi reading for CN(C)c1ccc(C(=O)N[C@@H](Cc2ccc(O)cc2)C(=O)N2CC[C@@H]3[C@H]2C(=O)CN3C(=O)c2cccc(S(C)(=O)=O)c2)cc1 : > 5.30

pKi reading for CC[C@H](NC(=O)OCc1ccccc1)C(=O)N1CC(=O)[C@@H]2[C@H]1CCN2C(=O)[C@H](CC(C)C)NC(=O)c1ccc(N(C)C)cc1 : > 5.30

pKi reading for CC(=O)N[C@@H](CC(C)C)C(=O)N1CC(=O)[C@@H]2[C@H]1CCN2C(=O)[C@H](CC(C)C)NC(=O)c1ccc(N(C)C)cc1 : > 5.30

pKi reading for Cc1c(C(=O)N[C@@H](CC(C)C)C(=O)N2CC[C@@H]3[C@H]2C(=O)CN3C(=O)c2ccccc2)oc2ccccc12 : > 5.30

----------
Molecular target: Bovine cathepsin S (Bos taurus, UniProt P25326)
Construct: purchased CN Biosciences
Sequence (P25326 115-331): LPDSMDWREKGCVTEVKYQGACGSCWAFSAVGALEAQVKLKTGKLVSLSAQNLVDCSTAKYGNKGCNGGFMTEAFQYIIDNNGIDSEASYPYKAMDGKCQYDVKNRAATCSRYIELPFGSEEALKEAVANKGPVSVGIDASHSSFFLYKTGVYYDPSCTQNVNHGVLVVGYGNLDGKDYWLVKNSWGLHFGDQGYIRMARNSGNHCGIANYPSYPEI
Assay: Cathepsin S peptidase activity assay, bovine enzyme (Ki)
Format: biochemical
Details: species of cathepsin S not given; read-out: Ki, inhibitors of cathepsin S
pKi: −log10 of the molar value.
readout: pKi

pKi reading for CC(C)C[C@H](NC(=O)c1cccc(CN)c1)C(=O)N1CC[C@@H]2[C@H]1C(=O)CN2C(=O)c1ccccc1S(C)(=O)=O : > 5.30

pKi reading for CC(C)C[C@H](NC(=O)c1ccc(N(C)C)cc1)C(=O)N1CC[C@@H]2[C@H]1C(=O)CN2C(=O)c1ccc2[nH]ccc2c1 : > 5.30

pKi reading for CC(C)C[C@H](NC(=O)c1cccc(N(C)C)c1)C(=O)N1CC[C@@H]2[C@H]1C(=O)CN2C(=O)c1cccc(S(C)(=O)=O)c1 : > 5.30

pKi reading for CC(C)CC(NC(=O)c1ccc(N)cc1)C(=O)N1NC[C@@H]2[C@H]1C(=O)CN2C(=O)c1ccccc1 (some centres unmarked) [Example 249b] : > 5.30

pKi reading for CC(C)C[C@H](NC(=O)c1ccc(N(C)C)cc1)C(=O)N1CC[C@@H]2[C@H]1C(=O)CN2C(=O)c1ccsc1 : > 5.30

pKi reading for CC(C)C[C@H](NC(=O)c1ccccc1)C(=O)N1CC[C@@H]2[C@H]1C(=O)CN2C(=O)c1ccccc1 : > 5.30

pKi reading for O=C(N[C@@H](Cc1ccc(O)cc1)C(=O)N1CC[C@@H]2[C@H]1C(=O)CN2C(=O)c1ccccc1)C(c1ccccc1)c1ccccc1 : > 5.30

pKi reading for CC(C)C[C@H](NC(=O)c1cccc(Br)c1)C(=O)N1CC[C@@H]2[C@H]1C(=O)CN2C(=O)c1ccccc1 : > 5.30

pKi reading for CC(C)C[C@H](NC(=O)c1cc2ccccc2s1)C(=O)N1CC[C@@H]2[C@H]1C(=O)CN2C(=O)c1ccccc1 : > 5.30

pKi reading for CC(C)C[C@H](NC(=O)c1cc2ccccc2o1)C(=O)N1CC[C@@H]2[C@H]1C(=O)CN2C(=O)c1cccnc1 : > 5.30

pKi reading for CC(C)C[C@H](NC(=O)c1cccc(N2CCNCC2)c1)C(=O)N1CC[C@@H]2[C@H]1C(=O)CN2C(=O)c1ccccc1 : > 5.30

pKi reading for CC(C)C[C@H](NC(=O)c1ccc(N2CCNCC2)cc1)C(=O)N1CC[C@@H]2[C@H]1C(=O)CN2C(=O)c1ccccc1 : > 5.30

pKi reading for CC(C)C[C@H](NC(=O)OCc1ccccc1)C(=O)N1CC(=O)[C@@H]2[C@H]1CCN2C(=O)[C@H](CC(C)C)NC(=O)c1ccc(N(C)C)cc1 : > 5.30

pKi reading for CC(C)C[C@H](NC(=O)c1ccc(C(C)C)cc1)C(=O)N1CC[C@@H]2[C@H]1C(=O)CN2C(=O)c1ccccc1 : > 5.30
